System: E. coli (MC4100)
Could you mark each record yes if its MIC falls strictly under 8 µM, and no if it equals or exceeds it?

Enquiry: A record lists CCCCCCCCCCC[P+](CC)(CC)CC[P+](CC)(CC)CCCCCCCCCCC [^EtP2P-11,11] . Is its MIC below 8 µM?
Return: yes

Enquiry: A record lists CCCCCCCCCC[P+](C)(C)CC[P+](C)(C)CCCCCCCCCC [^MeP2P-10,10] . Is its MIC below 8 µM?
Return: no

Enquiry: A record lists CCCCCCCC[P+](C)(C)CC[P+](C)(C)CCCCCCCC [^MeP2P-8,8] . Is its MIC below 8 µM?
Return: no

Enquiry: A record lists CCCCCCCCCCCC[N+](C)(C)CC[N+](C)(C)CCCCCCCCCCCC [12(2)12, reference compound] . Is its MIC below 8 µM?
Return: yes

Enquiry: A record lists CCCCCCCCCCCCCCCC[P+](CC)(CC)CC[P+](CC)(CC)CCCCCCCCCCCCCCCC [^EtP2P-16,16] . Is its MIC below 8 µM?
Return: no

Enquiry: A record lists CCCCCCCCCCCC[P+](C)(C)CC[P+](C)(C)CCCCCCCCCCC [^MeP2P-12,12] . Is its MIC below 8 µM?
Return: yes

Enquiry: A record lists CCCCCCCCCCCC[P+](CC)(CC)CC[P+](CC)(CC)CCCCCCCCCCCC [^EtP2P-12,12] . Is its MIC below 8 µM?
Return: yes

Enquiry: A record lists CCCCCCCCCCCCCCCC[P+](C)(C)CC[P+](C)(C)CCCCCCCCCCC [^MeP2P-16,16] . Is its MIC below 8 µM?
Return: no

Enquiry: A record lists CCCCCCCCCCCCC[P+](CC[P+](CCCCCCCCCCCCC)(C1CCCCC1)C1CCCCC1)(C1CCCCC1)C1CCCCC1 [^CyP2P-13,13] . Is its MIC below 8 µM?
Return: no

Enquiry: A record lists CCCCCCCC[P+](CC)(CC)CC[P+](CC)(CC)CCCCCCCC [^EtP2P-8,8] . Is its MIC below 8 µM?
Return: no

Enquiry: A record lists CCCCCCCCCC[P+](CC)(CC)CC[P+](CC)(CC)CCCCCCCCCC [^EtP2P-10,10] . Is its MIC below 8 µM?
Return: no

Enquiry: A record lists CCCCCCCCCCCCCCCC[P+](CC[P+](CCCCCCCCCCCCCCCC)(C1CCCCC1)C1CCCCC1)(C1CCCCC1)C1CCCCC1 [^CyP2P-16,16] . Is its MIC below 8 µM?
Return: no

Enquiry: A record lists CCCCCCCCC[P+](C)(C)CC[P+](C)(C)CCCCCCCCC [^MeP2P-9,9] . Is its MIC below 8 µM?
Return: no

Enquiry: A record lists CCCCCCCC[P+](CC[P+](CCCCCCCC)(C1CCCCC1)C1CCCCC1)(C1CCCCC1)C1CCCCC1 [^CyP2P-8,8] . Is its MIC below 8 µM?
Return: no

Enquiry: A record lists CCCCCCCCCCCCCC[P+](C)(C)CC[P+](C)(C)CCCCCCCCCCC [^MeP2P-14,14] . Is its MIC below 8 µM?
Return: no

Enquiry: A record lists CCCCCCCCCCCCCC[P+](CC[P+](CCCCCCCCCCCCCC)(C1CCCCC1)C1CCCCC1)(C1CCCCC1)C1CCCCC1 [^CyP2P-14,14] . Is its MIC below 8 µM?
Return: no

Enquiry: A record lists CCCCCCCCCCC[P+](C)(C)CC[P+](C)(C)CCCCCCCCCCC [^MeP2P-11,11] . Is its MIC below 8 µM?
Return: yes

Enquiry: A record lists CCCCCCCCCC[P+](CC[P+](CCCCCCCCCC)(c1ccccc1)c1ccccc1)(c1ccccc1)c1ccccc1 [^PhP2P-10,10, reference compound] . Is its MIC below 8 µM?
Return: yes

Enquiry: A record lists CCCCCCCCCC[P+](CCCCCC[P+](CCCCCCCCCC)(c1ccccc1)c1ccccc1)(c1ccccc1)c1ccccc1 [^PhP6P-10,10, reference compound] . Is its MIC below 8 µM?
Return: yes

Enquiry: A record lists CCCCCCCCC[P+](CC[P+](CCCCCCCCC)(C1CCCCC1)C1CCCCC1)(C1CCCCC1)C1CCCCC1 [^CyP2P-9,9] . Is its MIC below 8 µM?
Return: no

Enquiry: A record lists CCCCCCCCCCC[P+](CC[P+](CCCCCCCCCCC)(C1CCCCC1)C1CCCCC1)(C1CCCCC1)C1CCCCC1 [^CyP2P-11,11] . Is its MIC below 8 µM?
Return: yes
